- assay.system: human KLB and human FGFR1c co-expressed on HEK293/hKLB/hFGFR1c/SRE-luc cells (human, UniProt Q86Z14 1-1044; P11362 22-822)
- Sequence (Q86Z14 whole entry, chain 1 of 2): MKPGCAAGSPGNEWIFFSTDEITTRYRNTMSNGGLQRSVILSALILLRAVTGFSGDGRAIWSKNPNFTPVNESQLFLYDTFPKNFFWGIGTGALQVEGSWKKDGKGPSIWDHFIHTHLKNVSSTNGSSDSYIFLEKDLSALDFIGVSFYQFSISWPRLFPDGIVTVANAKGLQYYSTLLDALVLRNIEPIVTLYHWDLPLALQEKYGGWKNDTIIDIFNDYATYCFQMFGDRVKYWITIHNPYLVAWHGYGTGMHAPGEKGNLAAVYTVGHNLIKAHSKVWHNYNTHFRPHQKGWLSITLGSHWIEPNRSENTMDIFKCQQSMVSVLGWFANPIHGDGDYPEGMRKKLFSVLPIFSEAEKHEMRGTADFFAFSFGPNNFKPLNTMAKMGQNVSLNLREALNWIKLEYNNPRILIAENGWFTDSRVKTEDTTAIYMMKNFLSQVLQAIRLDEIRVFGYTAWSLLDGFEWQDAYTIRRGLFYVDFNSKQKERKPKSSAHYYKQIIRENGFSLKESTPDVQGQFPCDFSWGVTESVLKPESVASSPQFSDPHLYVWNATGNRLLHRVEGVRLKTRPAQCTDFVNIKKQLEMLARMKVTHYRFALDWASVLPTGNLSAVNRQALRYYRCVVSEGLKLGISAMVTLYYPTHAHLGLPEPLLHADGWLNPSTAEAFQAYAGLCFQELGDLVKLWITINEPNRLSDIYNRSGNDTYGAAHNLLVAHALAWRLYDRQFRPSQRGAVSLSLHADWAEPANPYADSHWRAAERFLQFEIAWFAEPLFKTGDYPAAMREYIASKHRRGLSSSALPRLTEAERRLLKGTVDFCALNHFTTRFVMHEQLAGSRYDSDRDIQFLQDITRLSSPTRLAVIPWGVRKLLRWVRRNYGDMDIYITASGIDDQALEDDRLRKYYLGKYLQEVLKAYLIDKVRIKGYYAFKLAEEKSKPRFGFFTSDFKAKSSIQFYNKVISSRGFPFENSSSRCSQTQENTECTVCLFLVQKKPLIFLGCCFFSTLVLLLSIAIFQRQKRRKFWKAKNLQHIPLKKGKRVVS
- Sequence (P11362 other isoform, or with tags, fused parts or gaps limits assumed, chain 2 of 2): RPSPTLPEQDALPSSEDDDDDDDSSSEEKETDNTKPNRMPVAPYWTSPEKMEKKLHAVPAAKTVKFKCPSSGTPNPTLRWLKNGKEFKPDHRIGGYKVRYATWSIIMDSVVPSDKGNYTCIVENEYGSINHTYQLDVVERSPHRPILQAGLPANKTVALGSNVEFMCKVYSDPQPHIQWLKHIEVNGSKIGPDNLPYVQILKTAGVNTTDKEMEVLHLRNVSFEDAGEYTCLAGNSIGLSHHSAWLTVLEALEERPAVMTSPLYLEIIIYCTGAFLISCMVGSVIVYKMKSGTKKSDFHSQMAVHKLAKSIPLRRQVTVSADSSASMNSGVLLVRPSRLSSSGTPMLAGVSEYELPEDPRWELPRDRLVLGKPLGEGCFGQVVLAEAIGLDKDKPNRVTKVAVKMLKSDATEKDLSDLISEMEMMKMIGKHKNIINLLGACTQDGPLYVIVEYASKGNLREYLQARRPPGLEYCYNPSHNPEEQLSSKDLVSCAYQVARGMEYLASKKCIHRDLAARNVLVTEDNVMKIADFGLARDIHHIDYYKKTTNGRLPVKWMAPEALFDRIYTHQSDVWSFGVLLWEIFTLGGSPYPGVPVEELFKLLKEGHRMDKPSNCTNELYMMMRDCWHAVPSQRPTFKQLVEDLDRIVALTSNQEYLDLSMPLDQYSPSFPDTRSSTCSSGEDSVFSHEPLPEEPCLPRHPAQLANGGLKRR
- protocol.notes: cell-based or functional assay
The label Satisfied is reserved for EC50, SRE-luc activation without ligand strictly under 3 nM; Not satisfied covers values equal to or above it.

Take a look at these entries with their results.
binder: H4H8852P (antibody, V domains shown, human IgG4 Fc (H4H prefix)) VH: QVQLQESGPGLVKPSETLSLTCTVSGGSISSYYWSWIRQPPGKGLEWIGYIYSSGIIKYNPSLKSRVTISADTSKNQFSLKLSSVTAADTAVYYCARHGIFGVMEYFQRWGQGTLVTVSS VL: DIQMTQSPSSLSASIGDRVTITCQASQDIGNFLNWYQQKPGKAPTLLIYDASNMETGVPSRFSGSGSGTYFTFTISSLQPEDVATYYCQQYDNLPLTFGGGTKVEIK
assigned.label: Satisfied
//
binder: H1H8900P (antibody, V domains shown, H1H Fc prefix (human Fc)) VH: QVQLVESGGGVVQPGRSLRLSCVASGFTFSSYGMHWVRQAPGKGLEWVAVISFDGSNKYYADSVKGRFTISRDNSKNTLYLQMNSLRPADTAVYYCAKDRSNYYYFGMDVWGQGTTVTVSS VL: DIVMTQTPLSLPVTPGEPASISCRSSQSLLDSDDGNTYLDWYLQKPGQSPQLLIYTLSYRASGVPDRFSGSGSGTDFTLKISRVEAEDVGVYYCMQRIEFPLTFGGGTKVEIK
assigned.label: Not satisfied
//
binder: H2aM8109N (antibody, V domains shown, mouse IgG2 Fc (H2aM prefix)) VH: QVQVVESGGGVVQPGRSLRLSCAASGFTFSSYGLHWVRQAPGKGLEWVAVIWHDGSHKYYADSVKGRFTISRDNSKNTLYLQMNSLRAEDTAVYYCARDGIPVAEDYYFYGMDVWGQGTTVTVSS VL: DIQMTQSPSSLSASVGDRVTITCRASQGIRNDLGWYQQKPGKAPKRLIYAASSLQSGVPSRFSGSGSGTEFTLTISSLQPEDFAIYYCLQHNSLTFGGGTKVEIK
assigned.label: Not satisfied
//
binder: H2aM8092N (antibody, V domains shown, mouse IgG2 Fc (H2aM prefix); also called H2M8092N) VH: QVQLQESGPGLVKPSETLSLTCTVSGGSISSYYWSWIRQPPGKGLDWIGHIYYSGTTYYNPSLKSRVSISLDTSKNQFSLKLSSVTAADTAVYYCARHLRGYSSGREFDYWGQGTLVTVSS VL: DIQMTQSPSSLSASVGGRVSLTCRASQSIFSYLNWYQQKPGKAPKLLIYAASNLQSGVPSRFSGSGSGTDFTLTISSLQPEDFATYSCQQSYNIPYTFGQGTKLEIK
assigned.label: Satisfied

Lab note: next binder to report on.
Record H2aM8098N (antibody, V domains shown, mouse IgG2 Fc (H2aM prefix)) VH: QLQLQESGPGLVKPSETLSLTCTVSGGSISSSNYYWDWIRQTPEKGLEWIGSIHYSGTSYYNPSLKSRVTISVDTSKNQFSLKLRSVTAADAAVYYCARQTSVYWYFDIWGHGTLVTVST VL: EIVLTQSPGTLSLSPGEGATLSCRASQSVRNNYLAWYQQKPGQAPRLLIYGASSRAIGIPDRFSGSGSGTDFTLTISRLEPKDFVVYYCQQYGGSLFTFGPGTKVDIK : is its EC50, SRE-luc activation without ligand strictly below 3 nM?
Not satisfied
